Origin of the recorded values: PubChem BioAssay AID1850

assay-method-text: PhoP regulon inhibitors, Salmonella typhi PhoP promoter GFP reporter, confirmatory (AID 1850);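 also: 0% = induced wells with vehicle and 100% = uninduced wells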
assay-context: fluorescence, 4 h, at 50 µM, stronger effect = higher value
Hit rate of the full screen: of about 310,000 compounds, about 1,000 (0.32%) were called active. Not all results are given here. Measured potencies and affinities stand elsewhere.
endpoint: inhibition (%)
Numeric answer only, unit % assumed.

Look up and report measured inhibition for this entry: O=C(NNS(=O)(=O)c1ccccc1[N+](=O)[O-])c1cccc([N+](=O)[O-])c1
-5.01

Look up and report measured inhibition for this entry: COc1ccc(/C=C/C2=CCN(Cc3ccc(OC)cc3)CC2)cc1
5.66

Look up and report measured inhibition for this entry: O=C1C2C(C(=O)N1/N=C/c1ccc([N+](=O)[O-])o1)C1C=CC2C12CC2 (stereo not drawn)
-7.07

Look up and report measured inhibition for this entry: CC(NC(=O)Cn1ncc(Cl)c(Cl)c1=O)C12CC3CC(CC(C3)C1)C2 (stereo not drawn)
-18.9

Look up and report measured inhibition for this entry: CN(C)C1=NCC(CSC(=N)N)S1 (stereo not drawn)
-1.53

Look up and report measured inhibition for this entry: Cc1ccc(NC(=O)CNCc2cccs2)cc1Br
2.2

Look up and report measured inhibition for this entry: CN(CC(=O)Nc1ccc(Cl)c(Cl)c1)C1CCCCC1
9.2

Look up and report measured inhibition for this entry: C/C(=C\C(=O)c1ccccc1)Nc1ccc(O)cc1
-9.8

Look up and report measured inhibition for this entry: COc1ccccc1-n1c(SCC(=O)Nc2ccc(F)cc2)nc2c(c1=O)SCC2
4.39

Look up and report measured inhibition for this entry: O=C(CCc1nnc(Cc2cccc(C(F)(F)F)c2)o1)NC1CC1
2.17

Look up and report measured inhibition for this entry: O=C(CCN(CCO)Cc1ccccc1)Nc1ccc(Br)cc1
20.3

Look up and report measured inhibition for this entry: O=C(CCN1C(=O)C2C3C=CC(C3)C2C1=O)N1CCN(c2ccccc2F)CC1 (stereo not drawn)
18.6

Look up and report measured inhibition for this entry: COc1ccc(Cl)cc1C(=O)NCC(C)C
-5.89

Look up and report measured inhibition for this entry: CC(=O)NCCCC(=O)NN1C(=S)N(Cc2ccccc2)C(=O)C1CC(=O)Nc1cccc(C)c1 (stereo not drawn)
-3.38

Look up and report measured inhibition for this entry: CCOc1cc(C(=O)Nc2ccc3c(c2)OCO3)ccc1OCCOc1ccccc1Cl
-0.32

Look up and report measured inhibition for this entry: CCOc1ccc(Oc2cc(N)cc([N+](=O)[O-])c2)cc1
-14.2

Look up and report measured inhibition for this entry: Cc1noc(C)c1CSCC(=O)N1CCN(c2ccc([N+](=O)[O-])cc2)CC1
2.46

Look up and report measured inhibition for this entry: Cc1ccc(NC(=O)NNC(=O)c2ccccc2)cc1
1.31

Look up and report measured inhibition for this entry: CN(C)/C=C1\C(=O)Oc2ccccc2C1=O
20.1

Look up and report measured inhibition for this entry: O=C(CSc1nnnn1C1CCCC1)N1CCCc2ccccc21
11.7

Look up and report measured inhibition for this entry: COc1cccc(CN2CCNC(=O)C2CC(=O)N2CCOc3ccccc3C2)c1OC (stereo not drawn)
-0.13

Look up and report measured inhibition for this entry: Cc1ccc(NC(=O)c2ccccc2)cc1
-5.33

Look up and report measured inhibition for this entry: CCN(CCC(=O)Nc1cc(OC)cc(OC)c1)Cc1ccccc1
-6.75
